tested.on: GDP-loaded KRAS G12D (Homo sapiens, UniProt P01116, G12D)
Sequence (P01116 1-188 isoform P01116-2 G12D): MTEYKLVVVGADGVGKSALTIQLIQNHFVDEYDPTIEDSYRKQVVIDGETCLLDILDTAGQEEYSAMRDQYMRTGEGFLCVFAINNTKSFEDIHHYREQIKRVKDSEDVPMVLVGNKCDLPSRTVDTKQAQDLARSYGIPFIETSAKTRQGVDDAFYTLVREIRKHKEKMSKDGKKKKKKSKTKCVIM
assay: KRAS G12D Probe Displacement Assay
Type: binding
condition.info: KRAS G12D 0.5 nM, biotinylated probe 2 4 nM; Table 6 letters; read-out: KRAS G12D Probe Displacement Assay IC50 (class)
Overview of recorded IC50 for various compounds

Recorded results for 2 compounds are shown here.
compound	IC50
Nc1nc2c(-c3c(C(F)(F)F)cc4c(N5CC6CCC(C5)N6)nc(OCC5COCC5O)nc4c3F)ccc(F)c2s1 (stereo not drawn)	< 50 nM
Oc1cc(Cl)c(C(F)(F)F)c(-c2c(Cl)cc3c(N4CC5CCC(C4)N5)nc(OC[C@@]45CCCN4C[C@H](F)C5)nc3c2F)c1	< 50 nM

IC50 in this record for Cc1cc(N)nc(-c2c(Cl)cc3c(N4CC5CCC(C4)N5)nc(OCC45CCCN4C(CF)CC5)nc3c2F)c1C(F)(F)F (stereo not drawn) : < 50 nM
